IC50 values recorded for MmCLK1 (Mus musculus)
MEASURED_ATTRIBUTE: IC50 (nM)

{"columns": ["SMILES_CODE", "UNIT_SYMBOL", "DATA_VALUE"],
 "data": [
  ["COc1ccc2[nH]c3c(=O)[nH]c4ccc(O)cc4c3c2c1", "nM", 33]
]}

[P] COc1ccc2[nH]c3c(=O)[nH]c4ccc(N)cc4c3c2c1
[Q] COc1ccc2[nH]c(=O)c3[nH]c4ccc(OC)cc4c3c2c1
Just curious, which one has the larger IC50 reading, P or Q ? The response must carry the label of the picked entry.
P

----------
TARGET_UNDER_TEST: HsGSK3β (Homo sapiens, UniProt P49841)
Sequence (P49841 whole entry): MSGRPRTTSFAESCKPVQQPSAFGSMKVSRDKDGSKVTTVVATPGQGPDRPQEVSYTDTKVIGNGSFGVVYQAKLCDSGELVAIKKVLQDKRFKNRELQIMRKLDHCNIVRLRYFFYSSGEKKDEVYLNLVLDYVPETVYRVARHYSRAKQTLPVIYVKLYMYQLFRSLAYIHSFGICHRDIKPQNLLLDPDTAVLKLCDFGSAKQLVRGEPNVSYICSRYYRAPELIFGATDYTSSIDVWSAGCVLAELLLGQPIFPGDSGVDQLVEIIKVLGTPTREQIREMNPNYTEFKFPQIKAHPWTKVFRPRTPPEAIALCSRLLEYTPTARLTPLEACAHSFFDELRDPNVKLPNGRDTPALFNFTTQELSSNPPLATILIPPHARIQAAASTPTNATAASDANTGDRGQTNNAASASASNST
TEST: ADP-Glo kinase assay
Format: biochemical, Homo sapiens (Hs)
ASSAY_CONTEXT: mean n = 2, % of maximum activity of DMSO control, read-out: % Residual activity at 1 μM GSK3β
Procedure: Kinase activities were determined using the ADP-Glo methodology (ADP-Glo Kinase Assay; Promega) according to the assay described by Nguyen et al.[32] except for MmCLK1. The later was assayed in the following buffer: 10 mM MgCl2, 1 mM EGTA, 1 mM DTT, 25 mM Tris-HCl pH 7.5, 50 µg/ml heparin, 0.15 mg/ml BSA, with 0.027 µg/µl of the following peptide: GRSRSRSRSRSR as substrate.
MEASURED_ATTRIBUTE: remaining activity at 1 µM (%)

[I] O=c1[nH]c2cc(O)ccc2c2c1[nH]c1ccccc12
[II] COc1ccc2c(c1)c1c3cc(O)ccc3[nH]c(=O)c1n2C
Which entry shows the lesser value of remaining activity at 1 µM here, I or II ? Refer to your chosen item by its label in the answer.
II

[a] COc1ccc2c(c1)c1c3cc(C(F)(F)F)ccc3[nH]c(=O)c1n2C
[b] COc1ccc2[nH]c3c(=O)[nH]c4cc(OC)c(OC)cc4c3c2c1
Which of these two has the smaller recorded remaining activity at 1 µM: a or b ? Pick one; state its label.
b
